The measurements presented in this section are drawn from paper PMC12122562.

Assay: Plasma pharmacokinetics of LMP744, non-compartmental
Type: in vivo, human
Settings: human, plasma, intravenous; DL3, 24 mg/m2, n=3
Observed property: AUC(0-t) (ng·h/mL)
Answers are plain numbers, in ng·h/mL.

Summary for this compound, COc1cc2c3c(n(CCCNCCO)c(=O)c2cc1OC)-c1cc2c(cc1C3=O)OCO2 [LMP744] : AUC(0-t) is 234

###

Assay: Plasma pharmacokinetics of LMP744, non-compartmental
Type: in vivo, human
Conditions: human, plasma, intravenous; DL1, 6 mg/m2, n=1
Observed property: Cmax (ng/mL)
Give bare numbers, in ng/mL.

The compound COc1cc2c3c(n(CCCNCCO)c(=O)c2cc1OC)-c1cc2c(cc1C3=O)OCO2 showed Cmax equal to 48.4
